Biological target: CDK9 CCNT1 (human) (UniProt P50750+O60563)
Sequence (O60563 whole entry, looked up): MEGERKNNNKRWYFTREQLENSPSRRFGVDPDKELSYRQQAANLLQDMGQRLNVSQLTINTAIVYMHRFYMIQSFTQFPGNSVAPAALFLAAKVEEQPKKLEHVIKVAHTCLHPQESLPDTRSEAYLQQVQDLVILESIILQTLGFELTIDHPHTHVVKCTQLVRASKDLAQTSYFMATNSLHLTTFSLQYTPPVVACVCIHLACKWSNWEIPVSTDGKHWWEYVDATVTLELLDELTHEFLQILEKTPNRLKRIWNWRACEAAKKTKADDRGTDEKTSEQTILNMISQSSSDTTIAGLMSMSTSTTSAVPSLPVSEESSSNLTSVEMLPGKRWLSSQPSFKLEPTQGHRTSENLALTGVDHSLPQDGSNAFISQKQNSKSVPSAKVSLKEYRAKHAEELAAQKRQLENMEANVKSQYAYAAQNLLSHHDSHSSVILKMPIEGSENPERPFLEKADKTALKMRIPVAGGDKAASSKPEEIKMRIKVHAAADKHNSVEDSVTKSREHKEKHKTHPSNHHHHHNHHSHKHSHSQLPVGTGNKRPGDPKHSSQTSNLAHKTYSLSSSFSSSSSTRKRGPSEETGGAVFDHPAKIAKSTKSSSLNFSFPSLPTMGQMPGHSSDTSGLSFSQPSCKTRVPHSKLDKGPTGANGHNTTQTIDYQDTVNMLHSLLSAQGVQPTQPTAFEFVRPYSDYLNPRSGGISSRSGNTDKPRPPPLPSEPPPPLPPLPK
Sequence (P50750 whole entry, looked up): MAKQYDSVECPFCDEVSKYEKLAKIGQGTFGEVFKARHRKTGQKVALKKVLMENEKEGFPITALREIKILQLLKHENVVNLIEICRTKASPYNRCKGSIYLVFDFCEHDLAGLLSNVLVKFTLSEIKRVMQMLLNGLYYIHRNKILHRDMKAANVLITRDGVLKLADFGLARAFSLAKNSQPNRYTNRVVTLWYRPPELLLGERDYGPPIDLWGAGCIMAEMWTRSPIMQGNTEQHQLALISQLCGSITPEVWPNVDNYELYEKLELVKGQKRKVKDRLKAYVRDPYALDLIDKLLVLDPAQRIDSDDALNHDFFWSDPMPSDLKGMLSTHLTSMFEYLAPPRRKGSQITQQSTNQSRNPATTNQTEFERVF
Test: radiometric filter-binding kinase assay, Kinase HotSpot
Details: compound 0.5 µM; ATP 10 µM
Mark Met for reported residual activity of 90% or greater; mark Not met for anything smaller.

{"columns": ["Smiles string", "Qualitative label"],
 "data": [
  ["CNC(=O)c1cc(Oc2ccc(NC(=O)Nc3ccc(Cl)c(C(F)(F)F)c3)cc2)ccn1", "Met"]
]}

## Input Identify whether the reported residual activity of the following compound is 90% or greater: CCN(CC)CCNC(=O)c1c(C)[nH]c(/C=C2\C(=O)Nc3ccc(Cl)cc32)c1C
## Output Not met

## Input Is reported residual activity greater than or equal to 90% here: O=C1NC(=O)c2c1c1c3ccccc3n3c1c1c2c2ccccc2n1C1CCC3O1
## Output Not met

## Input Item O=S(=O)(c1cccc2cnccc12)N1CCCNCC1 with residual activity of 90% or above?
## Output Not met

## Input Check if residual activity >= 90% (inclusive). Item: O=C1NC(=O)C(c2cn(CCCn3ccnc3)c3ccccc23)=C1Nc1ccccc1
## Output Not met

## Input Determine whether measured residual activity meets or exceeds 90% for N#C/C(=C(/N)Sc1ccc(N)cc1)c1ccccc1C(F)(F)F
## Output Met

* * *

Target: MAPK12 (human)
Assay: radiometric filter-binding kinase assay, Kinase HotSpot
Conditions: compound 0.5 µM; ATP 10 µM
Endpoint name: residual activity (%)
Report the value in % with no unit label.

Some molecules with recorded residual activity:
{"columns": ["Smiles string", "Output unit", "residual activity"],
 "data": [
  ["O=C1NC(=O)C(c2cn(CCCn3ccnc3)c3ccccc23)=C1Nc1ccccc1", "%", 102],
  ["CCN(CC)CCNC(=O)c1c(C)[nH]c(/C=C2\\C(=O)Nc3ccc(F)cc32)c1C", "%", 95.8],
  ["CNc1cc2c(Nc3cccc(Br)c3)ncnc2cn1", "%", 93.6]
]}

## Input Please report the measured residual activity for CC#CC(=O)Nc1cc2c(Nc3ccc(F)c(Cl)c3)ncnc2cn1
## Output 99.4

* * *

Examples of molecules with documented residual activity follow.
Molecular target: SYK (human)
Assay: radiometric filter-binding kinase assay, Kinase HotSpot
Conditions: compound 0.5 µM; ATP 10 µM

The following molecules have reported results that may help.
{"columns": ["Molecule", "residual activity"],
 "data": [
  ["O=C1NC(=O)c2c1c1c3ccccc3n3c1c1c2c2ccccc2n1C1CCC3O1", "15.8%"],
  ["CCCC(=O)Oc1ccc2[nH]c(C(=O)c3cc4ccccc4[nH]3)cc2c1", "93.9%"],
  ["O=C1Nc2ccc(Cl)cc2/C1=C/c1cc(Cl)c(O)c(Cl)c1", "93.3%"],
  ["O=C1NC(=O)C(c2cn(CCCn3ccnc3)c3ccccc23)=C1Nc1ccccc1", "99.9%"]
]}

## Input Enter recorded residual activity with SYK (human) for Cc1ccc(Nc2nccc(N(C)c3ccc4c(C)n(C)nc4c3)n2)cc1S(N)(=O)=O here.
## Output 101%

## Input Give residual activity only, for CCN(CC)C(=O)c1ccc(Nc2nc(OCC3CCCCC3)c3nc[nH]c3n2)cc1 , using SYK (human) data.
## Output 61.1%

## Input Give residual activity; test system SYK (human); molecule Oc1cccc(-c2nc(N3CCOCC3)c3oc4ncccc4c3n2)c1
## Output 94.2%

## Input Retrieve residual activity on SYK (human); query CC(C)N(CCC(=O)c1ccc2ccccc2c1)Cc1ccccc1
## Output 101%

## Input Specify residual activity for c1ccc(-c2n[nH]cc2-c2ccnc3ccccc23)nc1 , system SYK (human).
## Output 99.7%

## Input Report value: residual activity, system: SYK (human), molecule: O=S(=O)(c1cccc2cnccc12)N1CCCNCC1
## Output 84.3%

## Input State recorded residual activity with SYK (human), entry Nc1ccc2ncnc(NCCc3ccc(Oc4ccccc4)cc3)c2c1 , no comment.
## Output 102%

## Input Quote SYK (human) residual activity for entry N#C/C(=C(/N)Sc1ccc(N)cc1)c1ccccc1C(F)(F)F .
## Output 99.3%

## Input Under SYK (human): report residual activity of Cc1ccc(S(=O)(=O)/C=C/C#N)cc1 .
## Output 105%

## Input Quote residual activity with test system SYK (human) for Cc1[nH]c(/C=C2\C(=O)Nc3ccc(S(=O)(=O)N(C)c4cccc(Cl)c4)cc32)c(C)c1C(=O)N1CCN(C)CC1
## Output 96.7%

## Input Identify measured residual activity obtained with SYK (human) for COc1cc2ncnc(Nc3cccc(Cl)c3)c2cc1OC .
## Output 86.9%

## Input State residual activity (SYK (human)) of CNC(=O)c1cc(Oc2ccc(NC(=O)Nc3ccc(Cl)c(C(F)(F)F)c3)cc2)ccn1 .
## Output 101%
